target: T1, PKC-δ (purified isoform); assay: competitive ELISA, coated purified PKC-δ, vs anti-PKC δ (SC-213); PRE 200 µM
T1 construct: also called PKC-delta
T1 sequence (Q05655 whole entry, stated change not applied, canonical isoform): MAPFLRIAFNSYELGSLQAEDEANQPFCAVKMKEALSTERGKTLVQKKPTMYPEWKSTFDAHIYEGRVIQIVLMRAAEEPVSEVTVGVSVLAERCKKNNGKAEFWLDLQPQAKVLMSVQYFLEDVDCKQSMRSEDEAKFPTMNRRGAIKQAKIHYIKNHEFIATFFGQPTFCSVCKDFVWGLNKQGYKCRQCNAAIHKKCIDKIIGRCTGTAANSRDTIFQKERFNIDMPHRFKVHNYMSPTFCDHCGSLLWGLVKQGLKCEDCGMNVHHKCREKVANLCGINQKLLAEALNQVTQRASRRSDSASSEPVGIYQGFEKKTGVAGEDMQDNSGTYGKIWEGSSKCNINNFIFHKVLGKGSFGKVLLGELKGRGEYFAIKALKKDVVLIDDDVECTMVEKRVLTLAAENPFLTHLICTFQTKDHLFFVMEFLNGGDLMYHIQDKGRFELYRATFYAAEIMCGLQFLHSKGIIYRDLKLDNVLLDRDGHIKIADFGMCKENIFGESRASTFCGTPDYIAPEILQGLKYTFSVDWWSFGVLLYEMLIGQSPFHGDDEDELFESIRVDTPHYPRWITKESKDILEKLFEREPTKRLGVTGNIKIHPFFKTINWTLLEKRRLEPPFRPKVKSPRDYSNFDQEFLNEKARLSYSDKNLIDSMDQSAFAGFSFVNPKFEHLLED
Entry flag: rule met if relative binding capacity (100-%n, DMSO subtracted) reaches 20%; rule not met if it does not.

// query Confirm if relative binding capacity (100-%n, DMSO subtracted) reported for the binder Ac-ISIGILNQADK-NH2 (also called peptide PRE 10) [PRE 10] is 20% or above.
// result rule not met

// query Confirm if relative binding capacity (100-%n, DMSO subtracted) reported for the binder Ac-RDAQNLIGISI-NH2 (also called peptide PRE 11) [PRE 11] is 20% or above.
// result rule not met
